Origin of the recorded values: PubChem BioAssay (NCI)

System: KM20L2 colon
measurement.protocol: NCI tumour cell line growth inhibition, 48 h
value.kind: TGI

# example entries with known answers
compound="O=C1CC2Sc3ccccc3N=C2N1c1ccc(Cl)cc1Cl (stereo unspecified)" value_observed="> 100 µM"
compound=O=C1c2cccc3cccc(c23)C(=O)N1CCCN1CCN(CCCN2C(=O)c3cccc4cccc(c34)C2=O)CC1 value_observed="> 100 µM"
compound=Nc1ccc2c(c1)CN1C(=O)c3ccccc3C1=N2 value_observed="> 125 µM"
compound="CCCCCCCCCCCCCCCC(=O)OCC1OC(n2ccc(N)nc2=O)C(O)C1O (stereo unspecified)" value_observed="> 100 µM"
compound="COc1cc(C2c3cc4c(cc3[C@@H](Nc3cccc(O)c3)C3COC(=O)[C@H]23)OCO4)cc(OC)c1O (stereo partly specified)" value_observed="17.6 µM"

Moving on to the next compound.
Ask: Quick check: TGI of `COc1cc(CC(=O)c2ccc3c(c2)OCO3)cc(OC)c1OC` ?
Result: > 100 µM
